Measured EC50, SRE-luc activation without ligand, listed per entry for reference.
target: human KLB and human FGFR1c co-expressed on HEK293/hKLB/hFGFR1c/SRE-luc cells (human, UniProt Q86Z14 1-1044; P11362 22-822); experiment: cell-based or functional assay
Sequence (Q86Z14 whole entry, chain 1 of 2): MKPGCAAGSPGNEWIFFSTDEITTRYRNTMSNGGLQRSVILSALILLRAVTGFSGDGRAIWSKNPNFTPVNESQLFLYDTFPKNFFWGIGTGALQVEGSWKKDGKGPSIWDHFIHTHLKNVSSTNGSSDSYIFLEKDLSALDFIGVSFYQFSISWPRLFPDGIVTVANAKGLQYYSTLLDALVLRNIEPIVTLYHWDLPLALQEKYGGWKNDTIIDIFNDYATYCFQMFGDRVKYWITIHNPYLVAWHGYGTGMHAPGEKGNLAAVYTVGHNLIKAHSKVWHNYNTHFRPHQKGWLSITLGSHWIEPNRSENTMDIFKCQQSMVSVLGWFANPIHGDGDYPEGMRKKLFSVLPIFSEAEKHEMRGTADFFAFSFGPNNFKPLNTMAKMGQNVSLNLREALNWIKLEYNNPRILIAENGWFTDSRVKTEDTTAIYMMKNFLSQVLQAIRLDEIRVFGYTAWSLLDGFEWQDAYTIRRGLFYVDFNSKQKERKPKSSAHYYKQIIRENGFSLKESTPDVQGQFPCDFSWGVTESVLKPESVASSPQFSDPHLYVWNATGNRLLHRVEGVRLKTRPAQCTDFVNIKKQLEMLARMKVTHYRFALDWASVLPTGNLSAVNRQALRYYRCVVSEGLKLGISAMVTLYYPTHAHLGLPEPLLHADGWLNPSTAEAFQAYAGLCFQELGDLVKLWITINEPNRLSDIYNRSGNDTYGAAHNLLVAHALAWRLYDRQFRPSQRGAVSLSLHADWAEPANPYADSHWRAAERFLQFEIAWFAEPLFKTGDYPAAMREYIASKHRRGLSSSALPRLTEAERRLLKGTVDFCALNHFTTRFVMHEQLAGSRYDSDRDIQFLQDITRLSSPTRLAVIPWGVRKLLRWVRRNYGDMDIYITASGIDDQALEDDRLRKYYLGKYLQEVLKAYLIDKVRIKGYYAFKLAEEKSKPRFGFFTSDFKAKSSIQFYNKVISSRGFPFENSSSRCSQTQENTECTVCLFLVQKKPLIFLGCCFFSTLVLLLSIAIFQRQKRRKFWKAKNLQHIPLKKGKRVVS
Sequence (P11362 other isoform, or with tags, fused parts or gaps limits assumed, chain 2 of 2): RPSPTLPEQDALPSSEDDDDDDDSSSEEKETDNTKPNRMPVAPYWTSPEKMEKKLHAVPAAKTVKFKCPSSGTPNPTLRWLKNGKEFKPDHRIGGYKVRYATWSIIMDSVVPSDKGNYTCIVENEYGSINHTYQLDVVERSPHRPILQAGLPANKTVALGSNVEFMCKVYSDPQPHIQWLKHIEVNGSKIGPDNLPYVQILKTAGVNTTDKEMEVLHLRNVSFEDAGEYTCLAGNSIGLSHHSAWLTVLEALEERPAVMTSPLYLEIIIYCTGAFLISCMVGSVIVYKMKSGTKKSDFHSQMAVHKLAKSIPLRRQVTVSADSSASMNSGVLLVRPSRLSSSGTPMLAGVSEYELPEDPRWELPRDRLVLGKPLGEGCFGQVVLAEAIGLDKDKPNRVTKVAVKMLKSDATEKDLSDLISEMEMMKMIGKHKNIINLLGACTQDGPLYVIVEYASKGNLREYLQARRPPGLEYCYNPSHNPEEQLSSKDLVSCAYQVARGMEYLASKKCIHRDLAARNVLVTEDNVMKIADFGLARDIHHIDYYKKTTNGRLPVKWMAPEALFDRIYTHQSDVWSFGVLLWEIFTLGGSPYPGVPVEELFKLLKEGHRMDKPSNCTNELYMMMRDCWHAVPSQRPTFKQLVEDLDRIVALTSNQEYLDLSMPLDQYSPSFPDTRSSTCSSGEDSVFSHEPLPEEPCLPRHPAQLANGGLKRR

| binder | EC50, SRE-luc activation without ligand (pM) |
| --- | --- |
| H4H8871P (antibody, V domains shown, human IgG4 Fc (H4H prefix)) VH: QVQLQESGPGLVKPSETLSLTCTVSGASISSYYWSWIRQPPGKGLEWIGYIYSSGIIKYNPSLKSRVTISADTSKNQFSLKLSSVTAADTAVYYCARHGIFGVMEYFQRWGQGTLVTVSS VL: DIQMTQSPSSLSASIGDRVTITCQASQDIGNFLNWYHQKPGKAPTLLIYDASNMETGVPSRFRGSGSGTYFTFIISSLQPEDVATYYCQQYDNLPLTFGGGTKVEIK | 180 |
| H2aM8093N (antibody, V domains shown, mouse IgG2 Fc (H2aM prefix)) VH: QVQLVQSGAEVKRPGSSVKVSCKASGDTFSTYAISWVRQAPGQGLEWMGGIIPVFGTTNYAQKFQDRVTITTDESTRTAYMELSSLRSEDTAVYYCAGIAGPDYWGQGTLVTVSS VL: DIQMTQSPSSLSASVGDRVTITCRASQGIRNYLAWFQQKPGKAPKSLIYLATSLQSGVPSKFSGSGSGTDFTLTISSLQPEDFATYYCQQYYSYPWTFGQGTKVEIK | 68 |
